experimental.system: T1, huNav1.7α + β1-β2-β3 (human, UniProt Q15858 1-1988; A5A6L6 19-218; O60939 30-215; Q2KI11 23-215)
T1 construct: also called huNav1.7-beta1-beta2-beta3; huNav1.7-β1-β2-β3
measurement.notes: competition FACS vs EC25 of F103275B05(N93R), CHO FlpIn
reported.property: IC50 (nM)
Lab book: enter the figure in nM, no units written.

What does the data say about its IC50? Entry: F010302379 (bispecific antibody, also called F0103275B05(E1D, N93R)-50GS-F0103500E03(P14A, L108Q)-FLAG3-HIS6) DVQLVESGGGLVQPGGSLRLSCAASGSIFNINSMAWYRRAPGKQRELVASSTNGGSTNYADSVKGRFTISRDNAKRVYLQMNSLTPEDTAVYYCRALLQPSIYDISRTYWGQGTLVTVSSGGGGSGGGGSGGGGSGGGGSGGGGSGGGGSGGGGSGGGGSGGGGSGGGGSEVQLVESGGGLVQAGGSLRLSCAASGRTFSRYQMGWFRQAPGKEREFVAYISWSGSTRYVDSVKGRFTISRDNAKNTVYLQMNSLKPEDTAVYHCAAGTAGIISSRPETYDSWGQGTQVTVSSGAADYKDHDGDYKDHDIDYKDDDDKGAAHHHHHH
19
